experiment: Metabolic stability in rat plasma assessed as compound remaining after 4 hrs; assay type: ADME, cell-free; conditions: read-out: Stability
Observation type: remaining at 4 h (%)
Give bare numbers, in %.

Recorded remaining at 4 h for CN(C/C=C\CN)C[C@H]1O[C@@H](n2cnc3c(N)ncnc32)[C@H](O)[C@@H]1O , please?
100

* * *

Task for the reader: assign each of the following molecules its reported IC50.
target: CYP2D6 (Homo sapiens); experiment: Inhibition of human cytochrome P450 2D6; conditions: human
Sequence (P10635 whole entry): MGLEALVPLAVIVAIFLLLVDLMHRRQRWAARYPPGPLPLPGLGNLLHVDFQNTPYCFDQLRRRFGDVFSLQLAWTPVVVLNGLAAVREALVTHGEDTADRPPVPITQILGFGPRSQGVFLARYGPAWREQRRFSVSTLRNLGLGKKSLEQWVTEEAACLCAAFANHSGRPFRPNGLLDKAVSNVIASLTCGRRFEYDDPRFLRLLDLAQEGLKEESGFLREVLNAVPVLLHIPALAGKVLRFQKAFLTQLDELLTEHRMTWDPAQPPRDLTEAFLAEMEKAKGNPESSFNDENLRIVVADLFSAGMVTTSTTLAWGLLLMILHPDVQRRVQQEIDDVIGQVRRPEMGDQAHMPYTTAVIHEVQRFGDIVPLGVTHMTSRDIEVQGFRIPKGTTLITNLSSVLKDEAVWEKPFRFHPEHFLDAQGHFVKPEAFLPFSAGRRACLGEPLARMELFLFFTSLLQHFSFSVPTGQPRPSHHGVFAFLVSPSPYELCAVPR

Examples with answers:
- Smiles representation: "CN(C/C=C\\CN)C[C@H]1O[C@@H](n2cnc3c(N)ncnc32)[C@@H](F)[C@@H]1O"
  Value: "> 5 µM"
- Smiles representation: "Cc1nc(N)c2ncn([C@@H]3O[C@H](CN(C)C/C=C\\CN)[C@@H](O)[C@H]3O)c2n1"
  Value: "> 5 µM"

Value lookup for IC50; key = CN(C/C=C\CN)C[C@H]1O[C@@H](n2cnc3c(N)nc(Cl)nc32)[C@H](O)[C@@H]1O
> 5 µM

* * *

Target sequence: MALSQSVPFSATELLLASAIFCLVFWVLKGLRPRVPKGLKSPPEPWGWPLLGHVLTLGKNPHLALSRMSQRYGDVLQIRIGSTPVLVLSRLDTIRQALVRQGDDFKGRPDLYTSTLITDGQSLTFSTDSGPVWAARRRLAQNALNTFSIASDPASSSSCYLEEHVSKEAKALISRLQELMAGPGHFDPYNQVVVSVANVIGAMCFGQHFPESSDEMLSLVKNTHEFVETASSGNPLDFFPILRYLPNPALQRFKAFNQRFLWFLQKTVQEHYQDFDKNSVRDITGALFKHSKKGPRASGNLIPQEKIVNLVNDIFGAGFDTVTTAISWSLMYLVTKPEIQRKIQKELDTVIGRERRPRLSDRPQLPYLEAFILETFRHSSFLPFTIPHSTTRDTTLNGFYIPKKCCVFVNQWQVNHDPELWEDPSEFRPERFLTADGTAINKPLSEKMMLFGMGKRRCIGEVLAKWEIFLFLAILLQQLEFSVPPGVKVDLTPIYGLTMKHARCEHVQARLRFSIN
pIC50: −log10 of the molar value.
Observation type: pIC50

# input compound: CN(C/C=C\CN)C[C@H]1O[C@@H](n2cnc3c(N)ncnc32)[C@H](O)[C@@H]1O ; wanted: its pIC50
< 5.30

* * *

For each entry below, report its Cmax value.
test: Cmax in mouse brain at 50 mg/kg, ip administered as single dose; type: ADME, organism-based; design: dose 50 mg/kg, route intraperitoneal
Give bare numbers, in ng/mL.

Observe how each entry below is paired with its result.
- Smiles representation: "CN(C/C=C\\CN)C[C@H]1O[C@@H](n2cnc3c(N)nc(Cl)nc32)[C@H](O)[C@@H]1O"
  Unit: "ng/mL"
  Cmax: 110
- Smiles representation: "CN(C/C=C\\CN)C[C@H]1O[C@@H](n2cnc3c(N)ncnc32)[C@H](O)[C@@H]1O"
  Unit: "ng/mL"
  Cmax: 80
- Smiles representation: "Cc1nc(N)c2ncn([C@@H]3O[C@H](CN(C)C/C=C\\CN)[C@@H](O)[C@H]3O)c2n1"
  Unit: "ng/mL"
  Cmax: 660

May I ask what Cmax has been recorded for CN(C/C=C\CN)C[C@H]1O[C@@H](n2cnc3c(N)ncnc32)[C@H](F)[C@@H]1O ?
30

* * *

I'd appreciate it if you could supply IC50 values for the items below.
target: UniProt:P11712; test: Inhibition of human cytochrome P450 2C9; conditions: human
Sequence (P11712 whole entry): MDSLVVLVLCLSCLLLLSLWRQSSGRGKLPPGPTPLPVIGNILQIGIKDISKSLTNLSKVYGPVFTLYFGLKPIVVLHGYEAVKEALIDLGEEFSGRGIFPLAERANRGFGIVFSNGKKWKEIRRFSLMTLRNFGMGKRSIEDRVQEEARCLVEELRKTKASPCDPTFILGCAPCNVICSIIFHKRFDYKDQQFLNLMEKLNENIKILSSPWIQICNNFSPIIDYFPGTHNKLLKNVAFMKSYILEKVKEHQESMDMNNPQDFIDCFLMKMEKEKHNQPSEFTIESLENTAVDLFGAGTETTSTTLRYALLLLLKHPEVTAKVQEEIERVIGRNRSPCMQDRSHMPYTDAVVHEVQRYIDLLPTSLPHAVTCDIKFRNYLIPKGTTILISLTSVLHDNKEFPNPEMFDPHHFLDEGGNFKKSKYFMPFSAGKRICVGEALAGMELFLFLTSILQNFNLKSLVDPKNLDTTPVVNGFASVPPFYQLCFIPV

Use these answered entries as a reference point.
- Smiles representation: "Cc1nc(N)c2ncn([C@@H]3O[C@H](CN(C)C/C=C\\CN)[C@@H](O)[C@H]3O)c2n1"
  Target entity: "UniProt:P11712"
  Value: "> 5 µM"
- Smiles representation: "CN(C/C=C\\CN)C[C@H]1O[C@@H](n2cnc3c(N)nc(Cl)nc32)[C@H](O)[C@@H]1O"
  Target entity: "UniProt:P11712"
  Value: "> 5 µM"

Attention now turns to another entry.
Recorded IC50 of CN(C/C=C\CN)C[C@H]1O[C@@H](n2cnc3c(N)ncnc32)[C@@H](F)[C@@H]1O , please.
> 5 µM

* * *

Kindly state Cmax for each of the entries shown.
assay: Cmax in mouse blood at 50 mg/kg, ip administered as single dose; format: ADME, organism-based; design: dose 50 mg/kg, route intraperitoneal

- Smiles representation: "CN(C/C=C\\CN)C[C@H]1O[C@@H](n2cnc3c(N)ncnc32)[C@H](O)[C@@H]1O"
  Cmax: "44.8 µg/mL"
- Smiles representation: "Cc1nc(N)c2ncn([C@@H]3O[C@H](CN(C)C/C=C\\CN)[C@@H](O)[C@H]3O)c2n1"
  Cmax: "36.9 µg/mL"
- Smiles representation: "CN(C/C=C\\CN)C[C@H]1O[C@@H](n2cnc3c(N)ncnc32)[C@H](F)[C@@H]1O"
  Cmax: "33 µg/mL"

Now consider a different compound.
Please look up its Cmax: CN(C/C=C\CN)C[C@H]1O[C@@H](n2cnc3c(N)nc(Cl)nc32)[C@H](O)[C@@H]1O
39 µg/mL

* * *

assay: Permeability of the compound after 4 hrs by PAMPA assay; format: ADME; conditions: read-out: permeability
Record form. Attribute: Papp at 4 h. Fill in for each entry.
Give bare numbers, in ×10⁻⁶ cm/s.

- Smiles representation: "CN(C/C=C\\CN)C[C@H]1O[C@@H](n2cnc3c(N)ncnc32)[C@H](O)[C@@H]1O"
  Papp at 4 h (×10⁻⁶ cm/s): 0.13

Record request: Papp at 4 h value, item Cc1nc(N)c2ncn([C@@H]3O[C@H](CN(C)C/C=C\CN)[C@@H](O)[C@H]3O)c2n1
0.22

* * *

assay: in vivo; conditions: mouse, brain, ip, 50 mg/kg
Description: Ratio of AUC in brain to blood for mouse at 50 mg/kg, ip administered as single dose
Observation type: Kp
Answers are plain numbers.

Below, 3 molecules whose answers are already recorded.
- Smiles representation: "CN(C/C=C\\CN)C[C@H]1O[C@@H](n2cnc3c(N)ncnc32)[C@H](F)[C@@H]1O"
  Kp: 0.86
- Smiles representation: "CN(C/C=C\\CN)C[C@H]1O[C@@H](n2cnc3c(N)ncnc32)[C@H](O)[C@@H]1O"
  Kp: 1.7
- Smiles representation: "CN(C/C=C\\CN)C[C@H]1O[C@@H](n2cnc3c(N)nc(Cl)nc32)[C@H](O)[C@@H]1O"
  Kp: 1.79

Now let's try a different one.
Would you mind telling me what Kp value was observed for Cc1nc(N)c2ncn([C@@H]3O[C@H](CN(C)C/C=C\CN)[C@@H](O)[C@H]3O)c2n1 ?
7.28

* * *

Would you mind telling me the reported fraction unbound at 4 h of each entry?
test: Protein binding in mouse plasma at pH 7.4 after 4 hrs; type: ADME, cell-free; conditions: read-out: PPB (converted)
One number for each entry.

Below: 4 compounds and their reported fraction unbound at 4 h.
- Smiles representation: "CN(C/C=C\\CN)C[C@H]1O[C@@H](n2cnc3c(N)ncnc32)[C@H](F)[C@@H]1O"
  Value: 0.523
- Smiles representation: "CN(C/C=C\\CN)C[C@H]1O[C@@H](n2cnc3c(N)nc(Cl)nc32)[C@H](O)[C@@H]1O"
  Value: 0.578
- Smiles representation: "Cc1nc(N)c2ncn([C@@H]3O[C@H](CN(C)C/C=C\\CN)[C@@H](O)[C@H]3O)c2n1"
  Value: 0.643
- Smiles representation: "CN(C/C=C\\CN)C[C@H]1O[C@@H](n2cnc3c(N)ncnc32)[C@H](O)[C@@H]1O"
  Value: 0.302

We next turn to a different compound, shown below.
// returns reported fraction unbound at 4 h for input CN(C/C=C\CN)C[C@H]1O[C@@H](n2cnc3c(N)ncnc32)[C@@H](F)[C@@H]1O
0.628

* * *

For each of the compounds below, state its pIC50.
biological target: CYP2C19 (Homo sapiens, UniProt P33261); test: Inhibition of human cytochrome P450 2C19; conditions: human
Sequence (P33261 whole entry): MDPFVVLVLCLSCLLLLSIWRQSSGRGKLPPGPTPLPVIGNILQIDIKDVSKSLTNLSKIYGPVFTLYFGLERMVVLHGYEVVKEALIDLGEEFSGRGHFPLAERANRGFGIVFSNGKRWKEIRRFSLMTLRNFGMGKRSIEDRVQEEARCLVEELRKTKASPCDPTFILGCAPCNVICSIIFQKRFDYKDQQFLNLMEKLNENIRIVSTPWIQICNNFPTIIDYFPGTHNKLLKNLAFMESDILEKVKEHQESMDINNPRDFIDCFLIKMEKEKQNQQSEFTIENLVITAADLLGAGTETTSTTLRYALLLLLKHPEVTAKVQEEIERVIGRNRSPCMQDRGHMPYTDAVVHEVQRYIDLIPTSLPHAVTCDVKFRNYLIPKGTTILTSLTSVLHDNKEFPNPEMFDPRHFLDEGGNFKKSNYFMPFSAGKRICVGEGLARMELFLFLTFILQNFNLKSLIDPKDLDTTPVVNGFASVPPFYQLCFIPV
pIC50: −log10 of the molar value.

- Smiles representation: "CN(C/C=C\\CN)C[C@H]1O[C@@H](n2cnc3c(N)ncnc32)[C@@H](F)[C@@H]1O"
  pIC50: "< 5.30"
- Smiles representation: "CN(C/C=C\\CN)C[C@H]1O[C@@H](n2cnc3c(N)nc(Cl)nc32)[C@H](O)[C@@H]1O"
  pIC50: "< 5.30"

Let's switch to this compound now.
Consider the compound Cc1nc(N)c2ncn([C@@H]3O[C@H](CN(C)C/C=C\CN)[C@@H](O)[C@H]3O)c2n1 and give its measured pIC50.
< 5.30

These measurements were taken from ChEMBL document CHEMBL1649443.
